Overview of recorded Bliss excess for various molecules
system: NCI-H2731 (Mesothelioma); assay: Bliss excess, mean over the matrix (fraction); higher = more synergy
Number, no unit, nothing else.

Below are worked cases with known answers.
C=CCn1c(=O)c2cnc(Nc3ccc(N4CCN(C)CC4)cc3)nc2n1-c1cccc(C(C)(C)O)n1 [AZD1775] + Nc1ccn([C@@H]2O[C@H](CO)[C@@H](O)C2(F)F)c(=O)n1 [Gemcitabine] (first compound max 1 µM, partner max 0.3 µM) = 0.0305
CN(C)CCCOc1ccc(-c2ccc3ncc4c(c3c2)n(C2CCOCC2)c(=O)n4C)cn1 [AZD0156] + C[C@@H]1COCCN1C2=NC(=NC(=C2)C3(CC3)[S@](=N)(=O)C)C4=C5C=CNC5=NC=C4 [AZD6738] (first compound max 1 µM, 7x7, partner max 10 µM) = -0.0532
CS(=O)(=O)CCNCc1ccc(-c2ccc3ncnc(Nc4ccc(OCc5cccc(F)c5)c(Cl)c4)c3c2)o1 [Lapatinib] + NC1(c2ccc(-c3nc4ccn5c(=O)[nH]nc5c4cc3-c3ccccc3)cc2)CCC1 [MK-2206] (first compound max 10 µM, 7x7, partner max 10 µM) = 0.0201
COc1nnc2ccc(N3CCC(c4ccc(OCCN5CCN(C)C(=O)[C@H]5C)cc4)CC3)nn12 [AZD5153] + CC1(C)CCC(CN2CCN(c3ccc(C(=O)NS(=O)(=O)c4ccc(NCC5CCOCC5)c([N+](=O)[O-])c4)c(Oc4cnc5[nH]ccc5c4)c3)CC2)=C(c2ccc(Cl)cc2)C1 [Venetoclax] (first compound max 1 µM, 7x7, partner max 1 µM) = -0.085
O=C(c1cc(Cc2n[nH]c(=O)c3ccccc23)ccc1F)N1CCN(C(=O)C2CC2)CC1 [Olaparib] + CC1(C)CCC(CN2CCN(c3ccc(C(=O)NS(=O)(=O)c4ccc(NCC5CCOCC5)c([N+](=O)[O-])c4)c(Oc4cnc5[nH]ccc5c4)c3)CC2)=C(c2ccc(Cl)cc2)C1 [Venetoclax] (first compound max 10 µM, 7x7, partner max 1 µM) = -0.047

Lookup: Name the recorded Bliss excess for Cn1cnc2c(F)c(Nc3ccc(Br)cc3Cl)c(C(=O)NOCCO)cc21 [Selumetinib] + C[C@@H]1COCCN1C2=NC(=NC(=C2)C3(CC3)[S@](=N)(=O)C)C4=C5C=CNC5=NC=C4 [AZD6738] (first compound max 10 µM, 7x7, partner max 10 µM) .
Found: -0.0187

----------
system: OCI-AML3 (Acute Myeloid Leukemia); experiment: Bliss excess, mean over the matrix (fraction); higher = more synergy
Assay metric: Bliss excess
Number, no unit, nothing else.

Below are worked cases with known answers.
N#Cc1cnc(Nc2cc(NC[C@H]3CNCCO3)c(C(F)(F)F)cn2)cn1 [SRA737] + O=c1[nH]cc(F)c(=O)[nH]1 [5-Fluorouracil] (first compound max 10 µM, 7x7, partner max 20 µM) = 0.0646
COc1nnc2ccc(N3CCC(c4ccc(OCCN5CCN(C)C(=O)[C@H]5C)cc4)CC3)nn12 [AZD5153] + CC1(C)CCC(CN2CCN(c3ccc(C(=O)NS(=O)(=O)c4ccc(NCC5CCOCC5)c([N+](=O)[O-])c4)c(Oc4cnc5[nH]ccc5c4)c3)CC2)=C(c2ccc(Cl)cc2)C1 [Venetoclax] (first compound max 1 µM, 7x7, partner max 1 µM) = -0.052

Here is another compound to look at.
Lookup: Name the recorded Bliss excess for Cc1nc(-c2cn3c(n2)-c2ccc(-c4cnn(C(C)(C)C(N)=O)c4)cc2OCC3)n(C(C)C)n1 [Taselisib] + O=C(Nc1ccc2[nH]nc(-c3ccncc3)c2c1)[C@@H]1CCN(CC(=O)N2CCN(c3ccc(-c4ncccn4)cc3)CC2)C1 [SCH772984] (first compound max 10 µM, 7x7, partner max 5 µM) .
Found: 0.0661

----------
system: KP-3 (Pancreatic Carcinoma); experiment: Bliss excess, mean over the matrix (fraction); higher = more synergy
Overview of recorded Bliss excess for various compounds
Number, no unit, nothing else.

CN(CCO)CC[C@H](CSc1ccccc1)Nc1ccc(S(=O)(=O)NC(=O)c2ccc(N3CCC([C@@H](O)c4ccccc4-c4ccc(Cl)cc4)CC3)cc2)cc1S(=O)(=O)C(F)(F)F [AZD4320] + CN(C)CCCOc1ccc(-c2ccc3ncc4c(c3c2)n(C2CCOCC2)c(=O)n4C)cn1 [AZD0156] (first compound max 1 µM, 7x7, partner max 1 µM) = -0.0462

Lookup: Lab note: need Bliss excess with KP-3 (Pancreatic Carcinoma) for entry C[C@@H](Oc1cc(-c2cnn(C3CCNCC3)c2)cnc1N)c1c(Cl)ccc(F)c1Cl [Crizotinib] + Cn1cnc2c(F)c(Nc3ccc(Br)cc3Cl)c(C(=O)NOCCO)cc21 [Selumetinib] (first compound max 10 µM, 7x7, partner max 10 µM) , please look it up.
Found: -0.0229

----------
tested on: KP-3 (Pancreatic Carcinoma); experiment: combination Emax (second highest fraction inhibited in the dose matrix, 72 h); higher = more inhibition; extreme values may be limits of the assay
Overview of recorded combination Emax for various compounds

Below are worked cases with known answers.
CN(C)CCCOc1ccc(-c2ccc3ncc4c(c3c2)n(C2CCOCC2)c(=O)n4C)cn1 [AZD0156] + O=C(c1cc(Cc2n[nH]c(=O)c3ccccc23)ccc1F)N1CCN(C(=O)C2CC2)CC1 [Olaparib] (first compound max 3 µM, partner max 3 µM) = 0.0919
CC1(C)CCC(CN2CCN(c3ccc(C(=O)NS(=O)(=O)c4ccc(NCC5CCOCC5)c([N+](=O)[O-])c4)c(Oc4cnc5[nH]ccc5c4)c3)CC2)=C(c2ccc(Cl)cc2)C1 [Venetoclax] + C[C@@H](Nc1cc(F)cc(F)c1)c1cc(C(=O)N(C)C)cc2c(=O)cc(N3CCOCC3)oc12 [AZD8186] (first compound max 1 µM, 7x7, partner max 3 µM) = 0.0603
COc1cccc(OCCCN)c1-c1cc(Nc2cnc(C#N)cn2)n[nH]1 [Prexasertib] + Cc1cc2ncnn2cc1Nc1ncc2c(n1)n(C1CCOCC1)c(=O)n2C [AZD7648] (first compound max 1 µM, 7x7, partner max 10 µM) = 0.465

Lookup: Name the recorded combination Emax for CC1(C)CCC(CN2CCN(c3ccc(C(=O)NS(=O)(=O)c4ccc(NCC5CCOCC5)c([N+](=O)[O-])c4)c(Oc4cnc5[nH]ccc5c4)c3)CC2)=C(c2ccc(Cl)cc2)C1 [Venetoclax] + C[C@@H]1COCCN1C2=NC(=NC(=C2)C3(CC3)[S@](=N)(=O)C)C4=C5C=CNC5=NC=C4 [AZD6738] (first compound max 1 µM, 7x7, partner max 10 µM) .
Found: 0.323

----------
system: H9 (T-Cell Non-Hodgkin's Lymphoma); assay: combination Emax (second highest fraction inhibited in the dose matrix, 72 h); higher = more inhibition; extreme values may be limits of the assay
Overview of recorded combination Emax for various molecules
Number, no unit, nothing else.

C=CCn1c(=O)c2cnc(Nc3ccc(N4CCN(C)CC4)cc3)nc2n1-c1cccc(C(C)(C)O)n1 [AZD1775] + C[C@@H]1COCCN1C2=NC(=NC(=C2)C3(CC3)[S@](=N)(=O)C)C4=C5C=CNC5=NC=C4 [AZD6738] (first compound max 1 µM, partner max 10 µM) = 1
Cc1c2c(nn1C)CSCc1cc(n(C)n1)CSc1cc(c3ccccc3c1)OCCCc1c(C(=O)O)n(C)c3c-2c(Cl)ccc13 [AZD5991] + C[C@@H](Nc1cc(F)cc(F)c1)c1cc(C(=O)N(C)C)cc2c(=O)cc(N3CCOCC3)oc12 [AZD8186] (first compound max 1 µM, 7x7, partner max 3 µM) = 0.574
CS(=O)(=O)CCNCc1ccc(-c2ccc3ncnc(Nc4ccc(OCc5cccc(F)c5)c(Cl)c4)c3c2)o1 [Lapatinib] + NC1(c2ccc(-c3nc4ccn5c(=O)[nH]nc5c4cc3-c3ccccc3)cc2)CCC1 [MK-2206] (first compound max 10 µM, 7x7, partner max 10 µM) = 0.94

Lookup: Name the recorded combination Emax for NC1(C(=O)N[C@@H](CCO)c2ccc(Cl)cc2)CCN(c2ncnc3[nH]ccc23)CC1 [Capivasertib] + CC(=O)c1c(C)c2cnc(Nc3ccc(N4CCNCC4)cn3)nc2n(C2CCCC2)c1=O [Palbociclib] (first compound max 10 µM, 7x7, partner max 10 µM) .
Found: 0.985

Lookup: Name the recorded combination Emax for CC1(C)CCC(CN2CCN(c3ccc(C(=O)NS(=O)(=O)c4ccc(NCC5CCOCC5)c([N+](=O)[O-])c4)c(Oc4cnc5[nH]ccc5c4)c3)CC2)=C(c2ccc(Cl)cc2)C1 [Venetoclax] + C[C@@H](Nc1cc(F)cc(F)c1)c1cc(C(=O)N(C)C)cc2c(=O)cc(N3CCOCC3)oc12 [AZD8186] (first compound max 1 µM, 7x7, partner max 3 µM) .
Found: 0.299

Lookup: Name the recorded combination Emax for CN(CCO)CC[C@H](CSc1ccccc1)Nc1ccc(S(=O)(=O)NC(=O)c2ccc(N3CCC([C@@H](O)c4ccccc4-c4ccc(Cl)cc4)CC3)cc2)cc1S(=O)(=O)C(F)(F)F [AZD4320] + Cn1cnc2c(F)c(Nc3ccc(Br)cc3Cl)c(C(=O)NOCCO)cc21 [Selumetinib] (first compound max 1 µM, 7x7, partner max 3 µM) .
Found: 1

Lookup: Name the recorded combination Emax for Cn1cnc2c(F)c(Nc3ccc(Br)cc3Cl)c(C(=O)NOCCO)cc21 [Selumetinib] + C[C@@H]1COCCN1C2=NC(=NC(=C2)C3(CC3)[S@](=N)(=O)C)C4=C5C=CNC5=NC=C4 [AZD6738] (first compound max 10 µM, 7x7, partner max 10 µM) .
Found: 1

Lookup: Name the recorded combination Emax for Cn1cnc2c(F)c(Nc3ccc(Br)cc3Cl)c(C(=O)NOCCO)cc21 [Selumetinib] + CC(C)n1c(=O)n(C)c2cnc3cc(F)c(-c4ccc(OCCCN5CCCCC5)nc4)cc3c21 [AZD1390] (first compound max 10 µM, 7x7, partner max 0.3 µM) .
Found: 0.978

Lookup: Name the recorded combination Emax for COc1nnc2ccc(N3CCC(c4ccc(OCCN5CCN(C)C(=O)[C@H]5C)cc4)CC3)nn12 [AZD5153] + Cc1c2c(nn1C)CSCc1cc(n(C)n1)CSc1cc(c3ccccc3c1)OCCCc1c(C(=O)O)n(C)c3c-2c(Cl)ccc13 [AZD5991] (first compound max 1 µM, 7x7, partner max 1 µM) .
Found: 1

Lookup: Name the recorded combination Emax for CCc1c2c(nc3ccc(O)cc13)-c1cc3c(c(=O)n1C2)COC(=O)[C@]3(O)CC [SN-38] + O=C(c1cc(Cc2n[nH]c(=O)c3ccccc23)ccc1F)N1CCN(C(=O)C2CC2)CC1 [Olaparib] (first compound max 0.3 µM, 7x7, partner max 10 µM) .
Found: 1

Lookup: Name the recorded combination Emax for CC(=O)c1c(C)c2cnc(Nc3ccc(N4CCNCC4)cn3)nc2n(C2CCCC2)c1=O [Palbociclib] + Cc1c2c(nn1C)CSCc1cc(n(C)n1)CSc1cc(c3ccccc3c1)OCCCc1c(C(=O)O)n(C)c3c-2c(Cl)ccc13 [AZD5991] (first compound max 10 µM, 7x7, partner max 1 µM) .
Found: 0.742
